// reported pKd for each item listed
biological target: human cancer-specific MUC1 (human, UniProt P15941 24-1255, cancer-specific incomplete O-glycosylation (T, Tn, 2,3ST) of threonine at position 9 of the 20-amino acid tandem repeat … (SEQ ID NO: 15), as the background describes it); experiment: Cell ELISA
pKd: −log10 of the molar value.

binder	pKd
P10-1 Fab Dye (Fab, V domains shown, IRDye800CW (NHS ester) on Lys of the Fab fragment; number and positions not stated) VH: QVQLVQSGAEVKKPGASVKVSCKASGYTFTNYGLSWVRQAPGQGLEWMGENHPGSGIIYHNEKFRGRVTLTADRSTSTAYMELSSLRSEDTAVYYCARSSGTRGFAYWGQGTLVTVSS VL: DVVMTQTPLSLSVTPGQPASISCRSSQSIVHSNGNTYLEWYLQKPGQSPQLLIYRVSNRFSGVPDRFSGSGSGTDFTLKISRVEAEDVGVYYCFQGSHGPWTFGQGTKLEIKR	9.18
P10-2 Fab Dye (Fab, V domains shown, IRDye800CW (NHS ester) on Lys of the Fab fragment; number and positions not stated; IRDye800CW (NHS ester) on Lys of the Fab fragment; number and positions not stated; N-terminal glutamine largely pyroglutamic acid) VH: QVQLVQSGAEVKKPGASVKVSCKASGYTFTNYGLSWVRQAPGQGLEWMGENHPGSGIIYHNEKFRGRVTLTADRSTSTAYMELSSLRSEDTAVYYCARSSGTRGFDYWGQGTLVTVSS VL: DVVMTQTPLSLSVTPGQPASISCRSSQSIVHSNGNTYLEWYLQKPGQSPQLLIYRVSNRFSGVPDRFSGSGSGTDFTLKISRVEAEDVGVYYCFQGSHGPWTFGQGTKLEIKR	9.31
P10-1 Fab (Fab, V domains shown) VH: QVQLVQSGAEVKKPGASVKVSCKASGYTFTNYGLSWVRQAPGQGLEWMGENHPGSGIIYHNEKFRGRVTLTADRSTSTAYMELSSLRSEDTAVYYCARSSGTRGFAYWGQGTLVTVSS VL: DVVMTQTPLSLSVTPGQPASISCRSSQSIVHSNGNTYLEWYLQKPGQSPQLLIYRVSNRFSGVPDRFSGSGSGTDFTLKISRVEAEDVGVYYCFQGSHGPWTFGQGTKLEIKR	9.46
P10-2 Fab (Fab, V domains shown, heavy chain N-terminal glutamine was modified into pyroglutamic acid in a great majority of purified antibodies) VH: QVQLVQSGAEVKKPGASVKVSCKASGYTFTNYGLSWVRQAPGQGLEWMGENHPGSGIIYHNEKFRGRVTLTADRSTSTAYMELSSLRSEDTAVYYCARSSGTRGFDYWGQGTLVTVSS VL: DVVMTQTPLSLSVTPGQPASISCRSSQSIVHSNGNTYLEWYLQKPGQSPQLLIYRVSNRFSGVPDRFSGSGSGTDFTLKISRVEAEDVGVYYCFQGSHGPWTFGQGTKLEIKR	9.54

The reported measurements were obtained from patent US20200261603A1.
